PROPERTY LABEL: melting point (°C)

In the examples that follow, each entry is paired with its recorded melting point.
>>> measured_number("CSc1ncc(C2NC(=S)NC3=C2C(=O)CC(C)(C)C3)n1Cc1ccccc1Cl (stereo not drawn) [Compound 4d]")
142
>>> measured_number("CSc1ncc(C2NC(=O)NC3=C2C(=O)CC(C)(C)C3)n1Cc1ccccc1Cl (stereo not drawn) [Compound 4c]")
149
>>> measured_number("CSc1ncc(C2NC(=S)NC3=C2C(=O)CC(C)(C)C3)n1Cc1ccccc1 (stereo not drawn) [Compound 4b]")
157

A: CSc1ncc(C2NC(=S)NC3=C2C(=O)CC(C)(C)C3)n1Cc1ccc(F)cc1 (stereo not drawn) [Compound 4f]
B: CSc1ncc(C2NC(=O)NC3=C2C(=O)CC(C)(C)C3)n1Cc1ccc(F)cc1 (stereo not drawn) [Compound 4e]
Input: Given the two records A and B , choose the one whose melting point value is lower. Kindly give the label for the entry you pick.
Output: B

* * *

TEST TARGET: kinesin heavy chain Motor (Homo sapiens)
Construct: kinesin heavy chain Motor (Cytoskeleton, Cat # KR01-A); purchased Cytoskeleton KR01-A
Sequence (P33176 8-325 limits assumed): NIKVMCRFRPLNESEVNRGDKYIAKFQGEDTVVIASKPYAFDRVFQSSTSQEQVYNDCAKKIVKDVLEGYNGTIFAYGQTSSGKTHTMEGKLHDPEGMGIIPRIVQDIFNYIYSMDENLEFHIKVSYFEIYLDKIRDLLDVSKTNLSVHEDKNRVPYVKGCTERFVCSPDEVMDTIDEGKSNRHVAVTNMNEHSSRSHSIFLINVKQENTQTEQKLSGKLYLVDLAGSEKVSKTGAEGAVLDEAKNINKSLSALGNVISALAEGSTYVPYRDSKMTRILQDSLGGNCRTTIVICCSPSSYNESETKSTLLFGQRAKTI
TEST NAME: Kinesin ATPase activity assay (ELIPA kit, inorganic phosphate)
Format: biochemical
EXPERIMENTAL CONDITIONS: ATPase activity of kinesin, n = 2, read-out: IC 50 (μg/ml) for Kinesin inhibition (converted)
PROPERTY LABEL: IC50 (µM)

>>> measured_number("CSc1ncc(C2NC(=O)NC3=C2C(=O)CC(C)(C)C3)n1Cc1ccccc1 (stereo not drawn) [Compound 4a]")
182
>>> measured_number("CSc1ncc(C2NC(=S)NC3=C2C(=O)CC(C)(C)C3)n1Cc1ccccc1 (stereo not drawn) [Compound 4b]")
187
>>> measured_number("CSc1ncc(C2NC(=O)NC3=C2C(=O)CC(C)(C)C3)n1Cc1ccccc1Cl (stereo not drawn) [Compound 4c]")
183
>>> measured_number("CC(=O)O[C@H]1C(=O)[C@@]2(C)[C@H]([C@H](OC(=O)c3ccccc3)[C@]3(O)C[C@H](OC(=O)[C@H](O)[C@@H](NC(=O)c4ccccc4)c4ccccc4)C(C)=C1C3(C)C)[C@]1(OC(C)=O)CO[C@@H]1C[C@@H]2O [Taxol, reference compound]")
8.2

I: CSc1ncc(C2NC(=O)NC3=C2C(=O)CC(C)(C)C3)n1Cc1ccc(F)cc1 (stereo not drawn) [Compound 4e]
II: CSc1ncc(C2NC(=S)NC3=C2C(=O)CC(C)(C)C3)n1Cc1ccc(F)cc1 (stereo not drawn) [Compound 4f]
Input: # returns the entry with the larger IC50; inputs I and II Kindly give the label for the entry you pick.
Output: II
(II: 460 µM, I: 232 µM)

Measured values drawn from paper PMC3891991 for this set.
